- Test system: MDA-MB-231 (Breast Carcinoma)
- experiment_summary: Bliss excess, mean over the matrix (fraction); higher = more synergy
Let's look at some molecules and their measured Bliss excess.
result_type: Bliss excess

molecule="CN(C)CCCOc1ccc(-c2ccc3ncc4c(c3c2)n(C2CCOCC2)c(=O)n4C)cn1 [AZD0156] + CCN(CCO)CCCOc1ccc2c(Nc3cc(CC(=O)Nc4cccc(F)c4)[nH]n3)ncnc2c1 [AZD2811] (first compound max 1 µM, 7x7, partner max 1 µM)" observed_measurement=-0.0296
molecule="C[C@@H](c1ccc2nccn2c1)n1nnc2ncc(-c3cnn(C)c3)nc21 [Savolitinib] + Cc1c2c(nn1C)CSCc1cc(n(C)n1)CSc1cc(c3ccccc3c1)OCCCc1c(C(=O)O)n(C)c3c-2c(Cl)ccc13 [AZD5991] (first compound max 1 µM, 7x7, partner max 1 µM)" observed_measurement=-0.0186
molecule="Cc1cc2ncnn2cc1Nc1ncc2c(n1)n(C1CCOCC1)c(=O)n2C [AZD7648] + O=C(c1cc(Cc2n[nH]c(=O)c3ccccc23)ccc1F)N1CCN(C(=O)C2CC2)CC1 [Olaparib] (first compound max 10 µM, 7x7, partner max 10 µM)" observed_measurement=-0.0752
molecule="C[C@@H]1COCCN1c1cc(C2([S@](C)(=N)=O)CC2)nc(-c2ccnc3[nH]ccc23)n1 [AZD6738] + C1CC(C1)(C(=O)[O-])C(=O)[O-].N.N.[Pt+2] [Carboplatin] (first compound max 10 µM, 7x7, partner max 10 µM)" observed_measurement=-0.0294
molecule="CN(CCO)CC[C@H](CSc1ccccc1)Nc1ccc(S(=O)(=O)NC(=O)c2ccc(N3CCC([C@@H](O)c4ccccc4-c4ccc(Cl)cc4)CC3)cc2)cc1S(=O)(=O)C(F)(F)F [AZD4320] + C[C@@H](Nc1cc(F)cc(F)c1)c1cc(C(=O)N(C)C)cc2c(=O)cc(N3CCOCC3)oc12 [AZD8186] (first compound max 1 µM, 7x7, partner max 3 µM)" observed_measurement=0.0174
molecule="C[C@@H]1COCCN1c1cc(C2([S@](C)(=N)=O)CC2)nc(-c2ccnc3[nH]ccc23)n1 [AZD6738] + O=C(c1cc(Cc2n[nH]c(=O)c3ccccc23)ccc1F)N1CCN(C(=O)C2CC2)CC1 [Olaparib] (first compound max 10 µM, 7x7, partner max 10 µM)" observed_measurement=-0.0335
molecule="CCc1c2c(nc3ccc(O)cc13)-c1cc3c(c(=O)n1C2)COC(=O)[C@]3(O)CC [SN-38] + CN(C)CCCOc1ccc(-c2ccc3ncc4c(c3c2)n(C2CCOCC2)c(=O)n4C)cn1 [AZD0156] (first compound max 0.3 µM, 7x7, partner max 1 µM)" observed_measurement=0.0937

###

Let's look at some molecules and their measured Bliss excess.
- Test system: ES7 (Ewing's Sarcoma)
- experiment_summary: Bliss excess, mean over the matrix (fraction); higher = more synergy
result_type: Bliss excess

molecule="CCN(CCO)CCCOc1ccc2c(Nc3cc(CC(=O)Nc4cccc(F)c4)[nH]n3)ncnc2c1 [AZD2811] + C=CCn1c(=O)c2cnc(Nc3ccc(N4CCN(C)CC4)cc3)nc2n1-c1cccc(C(C)(C)O)n1 [AZD1775] (first compound max 1 µM, partner max 1 µM)" observed_measurement=-0.0468
molecule="CN(CCO)CC[C@H](CSc1ccccc1)Nc1ccc(S(=O)(=O)NC(=O)c2ccc(N3CCC([C@@H](O)c4ccccc4-c4ccc(Cl)cc4)CC3)cc2)cc1S(=O)(=O)C(F)(F)F [AZD4320] + C=CCn1c(=O)c2cnc(Nc3ccc(N4CCN(C)CC4)cc3)nc2n1-c1cccc(C(C)(C)O)n1 [AZD1775] (first compound max 1 µM, partner max 1 µM)" observed_measurement=0.136
molecule="Cc1cc2ncnn2cc1Nc1ncc2c(n1)n(C1CCOCC1)c(=O)n2C [AZD7648] + CN(C)CCCOc1ccc(-c2ccc3ncc4c(c3c2)n(C2CCOCC2)c(=O)n4C)cn1 [AZD0156] (first compound max 10 µM, 7x7, partner max 1 µM)" observed_measurement=0.0271

###

- Tested on: U-266 (Plasma Cell Myeloma)
- experiment_summary: Bliss excess, mean over the matrix (fraction); higher = more synergy
Let's look at some molecules and their measured Bliss excess.
result_type: Bliss excess

molecule="CS(=O)(=O)CCNCc1ccc(-c2ccc3ncnc(Nc4ccc(OCc5cccc(F)c5)c(Cl)c4)c3c2)o1 [Lapatinib] + C[C@@H](Oc1cc(-c2cnn(C3CCNCC3)c2)cnc1N)c1c(Cl)ccc(F)c1Cl [Crizotinib] (first compound max 10 µM, 7x7, partner max 10 µM)" observed_measurement=-0.0574
molecule="COc1nnc2ccc(N3CCC(c4ccc(OCCN5CCN(C)C(=O)[C@H]5C)cc4)CC3)nn12 [AZD5153] + CC1(C)CCC(CN2CCN(c3ccc(C(=O)NS(=O)(=O)c4ccc(NCC5CCOCC5)c([N+](=O)[O-])c4)c(Oc4cnc5[nH]ccc5c4)c3)CC2)=C(c2ccc(Cl)cc2)C1 [Venetoclax] (first compound max 1 µM, 7x7, partner max 1 µM)" observed_measurement=-0.157
molecule="CC1(C)CCC(CN2CCN(c3ccc(C(=O)NS(=O)(=O)c4ccc(NCC5CCOCC5)c([N+](=O)[O-])c4)c(Oc4cnc5[nH]ccc5c4)c3)CC2)=C(c2ccc(Cl)cc2)C1 [Venetoclax] + CCN(CCO)CCCOc1ccc2c(Nc3cc(CC(=O)Nc4cccc(F)c4)[nH]n3)ncnc2c1 [AZD2811] (first compound max 1 µM, 7x7, partner max 1 µM)" observed_measurement=-0.0216

###

- Tested on: KM-H2 (Hodgkin's Lymphoma)
- experiment_summary: combination Emax (second highest fraction inhibited in the dose matrix, 72 h); higher = more inhibition; extreme values may be limits of the assay
result_type: combination Emax

compound="COc1cccc(OCCCN)c1-c1cc(Nc2cnc(C#N)cn2)n[nH]1 [Prexasertib] + CN(C)CCCOc1ccc(-c2ccc3ncc4c(c3c2)n(C2CCOCC2)c(=O)n4C)cn1 [AZD0156] (first compound max 1 µM, 7x7, partner max 1 µM)" observed_measurement=0.933
compound="C[C@@H](c1ccc2nccn2c1)n1nnc2ncc(-c3cnn(C)c3)nc21 [Savolitinib] + CN(CC[C@H](CSC1=CC=CC=C1)NC2=C(C=C(C=C2)S(=O)(=O)NC(=O)C3=CC=C(C=C3)N4CCC(CC4)[C@H](C5=CC=CC=C5C6=CC=C(C=C6)Cl)O)S(=O)(=O)C(F)(F)F)CCO [AZD4320] (first compound max 1 µM, 7x7, partner max 1 µM)" observed_measurement=0.146
compound="CC1(C)CCC(CN2CCN(c3ccc(C(=O)NS(=O)(=O)c4ccc(NCC5CCOCC5)c([N+](=O)[O-])c4)c(Oc4cnc5[nH]ccc5c4)c3)CC2)=C(c2ccc(Cl)cc2)C1 [Venetoclax] + C[C@@H](Nc1cc(F)cc(F)c1)c1cc(C(=O)N(C)C)cc2c(=O)cc(N3CCOCC3)oc12 [AZD8186] (first compound max 1 µM, 7x7, partner max 3 µM)" observed_measurement=0.139
compound="Cc1c2c(nn1C)CSCc1cc(n(C)n1)CSc1cc(c3ccccc3c1)OCCCc1c(C(=O)O)n(C)c3c-2c(Cl)ccc13 [AZD5991] + C=CCn1c(=O)c2cnc(Nc3ccc(N4CCN(C)CC4)cc3)nc2n1-c1cccc(C(C)(C)O)n1 [AZD1775] (first compound max 1 µM, partner max 1 µM)" observed_measurement=0.968
compound="COc1nnc2ccc(N3CCC(c4ccc(OCCN5CCN(C)C(=O)[C@H]5C)cc4)CC3)nn12 [AZD5153] + CCN(CCO)CCCOc1ccc2c(Nc3cc(CC(=O)Nc4cccc(F)c4)[nH]n3)ncnc2c1 [AZD2811] (first compound max 1 µM, 7x7, partner max 1 µM)" observed_measurement=0.351
compound="COc1cc2ncnc(Nc3ccc(F)c(Cl)c3)c2cc1OCCCN1CCOCC1 [Gefitinib] + CC(C)n1c(=O)n(C)c2cnc3cc(F)c(-c4ccc(OCCCN5CCCCC5)nc4)cc3c21 [AZD1390] (first compound max 10 µM, 7x7, partner max 0.3 µM)" observed_measurement=0.19
compound="CC1(C)CCC(CN2CCN(c3ccc(C(=O)NS(=O)(=O)c4ccc(NCC5CCOCC5)c([N+](=O)[O-])c4)c(Oc4cnc5[nH]ccc5c4)c3)CC2)=C(c2ccc(Cl)cc2)C1 [Venetoclax] + Cn1cnc2c(F)c(Nc3ccc(Br)cc3Cl)c(C(=O)NOCCO)cc21 [Selumetinib] (first compound max 1 µM, 7x7, partner max 3 µM)" observed_measurement=0.097

###

- System: SK-N-FI (Neuroblastoma)
- experiment_summary: combination Emax (second highest fraction inhibited in the dose matrix, 72 h); higher = more inhibition; extreme values may be limits of the assay
result_type: combination Emax

compound="Cn1cnc2c(F)c(Nc3ccc(Br)cc3Cl)c(C(=O)NOCCO)cc21 [Selumetinib] + C=CCn1c(=O)c2cnc(Nc3ccc(N4CCN(C)CC4)cc3)nc2n1-c1cccc(C(C)(C)O)n1 [AZD1775] (first compound max 10 µM, partner max 1 µM)" observed_measurement=0.69
compound="Cc1cc2ncnn2cc1Nc1ncc2c(n1)n(C1CCOCC1)c(=O)n2C [AZD7648] + CCN(CCO)CCCOc1ccc2c(Nc3cc(CC(=O)Nc4cccc(F)c4)[nH]n3)ncnc2c1 [AZD2811] (first compound max 10 µM, 7x7, partner max 1 µM)" observed_measurement=0.274
compound="C[C@@H](Nc1cc(F)cc(F)c1)c1cc(C(=O)N(C)C)cc2c(=O)cc(N3CCOCC3)oc12 [AZD8186] + C1CN(CCC1(C(=O)N[C@@H](CCO)C2=CC=C(C=C2)Cl)N)C3=NC=NC4=C3C=CN4 [AZD5363] (first compound max 10 µM, 7x7, partner max 10 µM)" observed_measurement=0.335
compound="NC1(C(=O)N[C@@H](CCO)c2ccc(Cl)cc2)CCN(c2ncnc3[nH]ccc23)CC1 [Capivasertib] + COc1nnc2ccc(N3CCC(c4ccc(OCCN5CCN(C)C(=O)[C@H]5C)cc4)CC3)nn12 [AZD5153] (first compound max 10 µM, 7x7, partner max 1 µM)" observed_measurement=0.579
compound="O=C(c1cc(Cc2n[nH]c(=O)c3ccccc23)ccc1F)N1CCN(C(=O)C2CC2)CC1 [Olaparib] + COc1nnc2ccc(N3CCC(c4ccc(OCCN5CCN(C)C(=O)[C@H]5C)cc4)CC3)nn12 [AZD5153] (first compound max 10 µM, 7x7, partner max 1 µM)" observed_measurement=0.489
compound="CN(CCO)CC[C@H](CSc1ccccc1)Nc1ccc(S(=O)(=O)NC(=O)c2ccc(N3CCC([C@@H](O)c4ccccc4-c4ccc(Cl)cc4)CC3)cc2)cc1S(=O)(=O)C(F)(F)F [AZD4320] + Nc1ccn([C@@H]2O[C@H](CO)[C@@H](O)C2(F)F)c(=O)n1 [Gemcitabine] (first compound max 1 µM, 7x7, partner max 0.3 µM)" observed_measurement=0.378
compound="CCc1c2c(nc3ccc(O)cc13)-c1cc3c(c(=O)n1C2)COC(=O)[C@]3(O)CC [SN-38] + CN(C)CCCOc1ccc(-c2ccc3ncc4c(c3c2)n(C2CCOCC2)c(=O)n4C)cn1 [AZD0156] (first compound max 0.3 µM, 7x7, partner max 1 µM)" observed_measurement=0.669
compound="Cc1c2c(nn1C)CSCc1cc(n(C)n1)CSc1cc(c3ccccc3c1)OCCCc1c(C(=O)O)n(C)c3c-2c(Cl)ccc13 [AZD5991] + CN(C)CCCOc1ccc(-c2ccc3ncc4c(c3c2)n(C2CCOCC2)c(=O)n4C)cn1 [AZD0156] (first compound max 1 µM, 7x7, partner max 1 µM)" observed_measurement=0.443
